Tested On: NRAS Q61K (Homo sapiens, UniProt P01111+P62937, Q61K)
Sequence (P01111 whole entry Q61K): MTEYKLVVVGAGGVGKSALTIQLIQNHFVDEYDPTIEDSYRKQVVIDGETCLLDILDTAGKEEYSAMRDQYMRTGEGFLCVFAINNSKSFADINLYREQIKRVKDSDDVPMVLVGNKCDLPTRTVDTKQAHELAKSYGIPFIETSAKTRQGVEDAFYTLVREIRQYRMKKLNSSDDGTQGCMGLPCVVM
Sequence (P62937 whole entry): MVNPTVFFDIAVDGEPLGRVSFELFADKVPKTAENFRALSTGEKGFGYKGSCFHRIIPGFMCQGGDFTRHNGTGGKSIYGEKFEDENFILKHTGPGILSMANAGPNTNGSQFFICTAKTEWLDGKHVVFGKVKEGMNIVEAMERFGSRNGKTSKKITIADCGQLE
Test: Disruption of BRAF RBD interaction with Ras (FRET / MOA assay)
Assay type: biochemical
Measurement Context: read-out: NRAS Q61K FRET data IC50
Experimental: Compound is present in plate wells as a 10-point 3-fold dilution series starting at a final concentration of 30 μM. […] Compounds that facilitate disruption of a Ras:RAF complex are identified as those eliciting a decrease in the TR-FRET ratio relative to DMSO control wells. Note—The following protocol describes a procedure for monitoring disruption of K-Ras G12C (GMP-PNP) binding to BRAF^RBD by a compound of the invention. […]
pIC50: −log10 of the molar value.
The compounds listed here are annotated with their pIC50.

[Q] Please give the measured pIC50 for this compound: CCn1c(-c2cccnc2[C@H](C)OC)c2c3cc(ccc31)-c1csc(n1)C[C@H](NC(=O)[C@H](C(C)C)N(C)C(=O)N1CC(C(=O)N3CCOCC3)C1)C(=O)N1CCC[C@H](N1)C(=O)OCC(C)(C)C2 (atropisomer, axis not shown)
[A] 7.00 to 8.00

[Q] Please give the measured pIC50 for this compound: CCn1c(-c2cccnc2[C@H](C)OC)c2c3cc(ccc31)-c1cc(cc(S(C)(=O)=O)c1)C[C@H](NC(=O)[C@H](C(C)C)N(C)C(C)=O)C(=O)N1CCC[C@H](N1)C(=O)OCC(C)(C)C2 (racemic)
[A] < 5.00

* * *

The compounds listed here are annotated with their pIC50.
Tested On: NRAS Q61R (Homo sapiens, UniProt P01111+P62937, Q61R)
Sequence (P01111 whole entry Q61R, one chain of several): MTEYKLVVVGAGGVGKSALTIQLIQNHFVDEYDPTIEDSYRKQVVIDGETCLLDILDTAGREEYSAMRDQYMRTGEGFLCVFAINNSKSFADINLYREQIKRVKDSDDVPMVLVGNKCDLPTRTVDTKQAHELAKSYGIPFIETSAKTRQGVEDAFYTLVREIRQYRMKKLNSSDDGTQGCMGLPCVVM
Test: Disruption of BRAF RBD interaction with Ras (FRET / MOA assay)
Type: biochemical
Measurement Context: read-out: NRAS Q61R FRET data IC50
pIC50: −log10 of the molar value.

| Compound | pIC50 |
| --- | --- |
| CCn1c(-c2cccnc2[C@H](C)OC)c2c3cc(ccc31)-c1cc(O)cc(c1)C[C@H](NC(=O)C1CCC3C1C3(F)F)C(=O)N1CCC[C@H](N1)C(=O)OCC(C)(C)C2 (some centres unmarked) | < 5.00 |

[Q] Form field - read-out: pIC50; system: NRAS Q61R (Homo sapiens, UniProt P01111+P62937, Q61R); submitted item: CCn1c(-c2cccnc2[C@H](C)OC)c2c3cc(ccc31)-c1csc(n1)C[C@H](NC(=O)[C@H](C(C)C)N(C)C(=O)N1CCC13COC3)C(=O)N1CCC[C@H](N1)C(=O)OCC(C)(C)C2 (atropisomer, axis not shown)
[A] 7.00 to 8.00

* * *

Tested On: KRAS G12C (Homo sapiens, UniProt P01116+P62937, G12C)
Sequence (P01116 1-188 isoform P01116-2 G12C): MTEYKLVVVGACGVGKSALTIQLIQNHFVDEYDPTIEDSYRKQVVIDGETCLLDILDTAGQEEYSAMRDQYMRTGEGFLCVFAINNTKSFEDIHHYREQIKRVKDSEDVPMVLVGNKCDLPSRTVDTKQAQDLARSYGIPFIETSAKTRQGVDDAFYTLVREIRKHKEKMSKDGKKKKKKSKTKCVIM
Sequence (P62937 whole entry): as the sequence (P62937 whole entry) above
Test: Disruption of BRAF RBD interaction with K-Ras (FRET / MOA assay)
Assay type: biochemical
Measurement Context: read-out: FRET G12C IC50
Assay Endpoint: pIC50
For clarity, pIC50 is expressed as the negative log10 of concentration in mol/L.

[Q] Form field - read-out: pIC50; system: KRAS G12C (Homo sapiens, UniProt P01116+P62937, G12C); submitted item: CCn1c(-c2cnccc2COC)c2c3cc(ccc31)-c1cc(O)cc(c1)C[C@H](NC(=O)[C@H](C(C)C)N(C)C(=O)OC1CN(C)C1)C(=O)N1CCC[C@H](N1)C(=O)OCC(C)(C)C2
[A] 6.35
